# GI50 at 48 h per entry
experiment: in vitro; type: cell-based; conditions: African green monkey
Peptide text beside a SMILES is read from it.
recorded.endpoint: GI50 at 48 h

- compound: "CC[C@H](C)[C@@H]1NC(=O)[C@H](CCCNC(=N)N)NC(=O)[C@H](Cc2c[nH]c3ccccc23)NC(=O)[C@@H]2CCCN2C(=O)[C@H]2CCCN2C(=O)[C@H](C)NC(=O)[C@H](CCC(N)=O)NC(=O)[C@H](CC(C)C)NC(=O)[C@H](CCCNC(=N)N)NC(=O)[C@H](CCC(N)=O)NC(=O)[C@H](CC(C)C)NC(=O)[C@@H](CCCNC(=N)N)NC(=O)[C@H]([C@@H](C)CC)NC(=O)[C@H](CCCNC(=N)N)NC1=O [Example 13] (HELM PEPTIDE1{W.R.I.R.I.[dR].L.Q.R.L.Q.A.[dP].P}$PEPTIDE1,PEPTIDE1,1:R1-14:R2$$$V2.0)"
  reported.result: "> 50 µg/mL"
- compound: "CC[C@H](C)[C@@H]1NC(=O)[C@H](CCCNC(=N)N)NC(=O)[C@H](Cc2c[nH]c3ccccc23)NC(=O)[C@@H]2CCCN2C(=O)[C@H]2CCCN2C(=O)[C@H](C)NC(=O)[C@H](CCC(N)=O)NC(=O)[C@H](CC(C)C)NC(=O)[C@H](CCCNC(=N)N)NC(=O)[C@H](CCC(N)=O)NC(=O)[C@H](CC(N)=O)NC(=O)[C@@H](CCCNC(=N)N)NC(=O)[C@H]([C@@H](C)CC)NC(=O)[C@H](CCN)NC1=O [Example 7] (HELM PEPTIDE1{W.R.I.[Dab].I.[dR].N.Q.R.L.Q.A.[dP].P}$PEPTIDE1,PEPTIDE1,1:R1-14:R2$$$V2.0)"
  reported.result: "> 50 µg/mL"

Data credit: patent US8895499B2
